Provenance of the data: patent US10501479B2

// values below are reported fraction unbound
Assay: Plasma protein binding (PPB), rat
Format: in vitro ADME
Details: read-out: PPB (R)

Requested read-out: fraction unbound. Entry: CC(NC(=O)Nc1ccc(S(=O)(=O)Nc2ccc3c(c2)CCN(C)C3)cc1)c1cccc(Cl)c1Cl (centres unmarked) [H1333]
0.001

Entry to check: COc1cc(S(=O)(=O)Cc2ccc3c(c2)CCNC3)ccc1NC(=O)NC(C)c1cccc(Cl)c1Cl.Cl (centres unmarked) [H1415]
0.0023

* * *

Molecular target: GHSR-1a (HEK293/GHSR1a cell line) (Homo sapiens)
Construct: expressed in transfected cells; host or cells: HEK293/GHSR1a cell line
Sequence (Q92847 whole entry): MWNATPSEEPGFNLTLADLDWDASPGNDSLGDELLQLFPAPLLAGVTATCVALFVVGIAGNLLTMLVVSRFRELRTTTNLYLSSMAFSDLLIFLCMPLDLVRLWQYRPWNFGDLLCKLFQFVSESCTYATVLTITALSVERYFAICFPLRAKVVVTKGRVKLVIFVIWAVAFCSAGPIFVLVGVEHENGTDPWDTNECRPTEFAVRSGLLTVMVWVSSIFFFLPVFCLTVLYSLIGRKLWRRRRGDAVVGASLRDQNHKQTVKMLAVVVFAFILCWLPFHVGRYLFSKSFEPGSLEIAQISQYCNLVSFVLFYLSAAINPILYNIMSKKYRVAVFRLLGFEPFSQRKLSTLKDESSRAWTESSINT
Test: Ghrelin agonist potency (EC50) with calcium FLIPR assay
Assay type: cell-based
Conditions: HEK293/GHSR1a, read-out: Activity EC50/EMax: EC50 (ghrelin agonist potency)
Protocol: Evaluation of Ghrelin Agonist (EC50) and Antagonist Potency (IC50) with Calcium FLIPR Assay: The intracellular calcium assay was carried out in a 384-well format FLIPR™ (Molecular Device) HEK293/GHSR1a cell line. […] Relative fluorescence was monitored by the FLIPR™ Molecular Device. […] To check for GHSR-1a antagonism, the compound and Ghrelin (10 nM) were added to the cells at t=20 sec. and the calcium response was measured for 2 minutes. […]
pEC50: −log10 of the molar value.
// values below are reported pEC50

Here is how some molecules turned out for pEC50.
COc1cc(S(=O)(=O)Cc2ccc3c(c2)CNC3)ccc1NC(=O)NC(C)c1ccccc1.Cl (stereo not shown) = < 4.52
CC1Cc2cc(CS(=O)(=O)c3ccc(NC(=O)NC(C)c4cccc(Cl)c4Cl)c(F)c3)ccc2CN1 (stereo not shown) = < 4.52
CC(NC(=O)Nc1ccc(S(=O)(=O)CC2CCC(NCC3CC3)CC2)cc1)c1cccc(Cl)c1Cl (stereo not shown) = < 4.52

Then there is this molecule:
Requested read-out: pEC50. Entry: COc1cc(S(=O)(=O)Cc2ccc3c(c2)CNC3)ccc1NC(=O)NC(C)c1cccc(Cl)c1Cl.Cl (stereo not shown)
< 4.30
